molecules and their reported CC50 at 48 h
- measurement description: Cytotoxicity against human HG23 cells after 48 hrs
- Format: cell-based
- assay context: read-out: TD50
property measured: CC50 at 48 h

>>> result("O=S1(=O)NCCN1Cc1cccc(OCc2ccccc2)c1")
"18 µM"
>>> result("O=S1(=O)N(Cc2cccnc2)CCN1Cc1cccc(Oc2ccccc2)c1")
"53 µM"
>>> result("O=S1(=O)NCCN1Cc1ccc(OCc2ccccc2)cc1")
"159 µM"
>>> result("O=S1(=O)NCCN1Cc1cccc(Oc2ccccc2)c1")
"50 µM"
>>> result("O=C(O)CN1CCN(Cc2cccc(Oc3ccccc3)c2)S1(=O)=O")
"48 µM"
>>> result("O=S1(=O)NCCN1Cc1ccc(Oc2ccccc2)cc1")
"57 µM"

Reference source: ChEMBL document CHEMBL1833900
